The reported numbers originate from patent US20180030151A1.

Listing of entries alongside the reported FXa assay % of FXa alone, 5 nM Ab, 10 nM TFPI.
Target: recombinant human TFPI (tissue factor pathway inhibitor) (human, UniProt P10646 29-304)
Test: cell-based or functional assay
QUANTITY_NAME: FXa assay % of FXa alone, 5 nM Ab, 10 nM TFPI (%)

BINDER: clone 13 (antibody, V domains shown) VH: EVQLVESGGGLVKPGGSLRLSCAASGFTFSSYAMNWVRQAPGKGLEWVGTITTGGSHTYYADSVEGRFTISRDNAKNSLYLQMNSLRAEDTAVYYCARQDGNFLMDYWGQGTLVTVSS VL: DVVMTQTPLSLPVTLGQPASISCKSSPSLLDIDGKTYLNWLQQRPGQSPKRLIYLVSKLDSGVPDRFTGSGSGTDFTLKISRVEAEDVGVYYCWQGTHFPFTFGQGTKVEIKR
ASSAY_RESULT: 44.8
//
BINDER: clone 1023 (antibody, V domains shown, scFv on yeast at selection; human IgG4/kappa IgG as purified) VH: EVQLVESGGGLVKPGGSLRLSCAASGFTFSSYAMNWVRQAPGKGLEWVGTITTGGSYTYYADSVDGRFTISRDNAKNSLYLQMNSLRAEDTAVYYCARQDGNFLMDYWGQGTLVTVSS VL: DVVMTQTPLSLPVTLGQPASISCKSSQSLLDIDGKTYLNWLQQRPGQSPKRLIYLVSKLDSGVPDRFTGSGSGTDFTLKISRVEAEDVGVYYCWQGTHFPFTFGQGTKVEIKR
ASSAY_RESULT: 25.2
